molecular target: Aryl hydrocarbon receptor (Homo sapiens) (UniProt P35869); experiment: ATG_Ahr_CIS: Attagene CIS-FACTORIAL HepG2 Assay for human Aryl Hydrocarbon Receptor (Ahr) (AID 2282930); settings: HepG2 AhR cis-factorial reporter transcription; actives raise or lower the signal
Sequence (P35869 whole entry, looked up): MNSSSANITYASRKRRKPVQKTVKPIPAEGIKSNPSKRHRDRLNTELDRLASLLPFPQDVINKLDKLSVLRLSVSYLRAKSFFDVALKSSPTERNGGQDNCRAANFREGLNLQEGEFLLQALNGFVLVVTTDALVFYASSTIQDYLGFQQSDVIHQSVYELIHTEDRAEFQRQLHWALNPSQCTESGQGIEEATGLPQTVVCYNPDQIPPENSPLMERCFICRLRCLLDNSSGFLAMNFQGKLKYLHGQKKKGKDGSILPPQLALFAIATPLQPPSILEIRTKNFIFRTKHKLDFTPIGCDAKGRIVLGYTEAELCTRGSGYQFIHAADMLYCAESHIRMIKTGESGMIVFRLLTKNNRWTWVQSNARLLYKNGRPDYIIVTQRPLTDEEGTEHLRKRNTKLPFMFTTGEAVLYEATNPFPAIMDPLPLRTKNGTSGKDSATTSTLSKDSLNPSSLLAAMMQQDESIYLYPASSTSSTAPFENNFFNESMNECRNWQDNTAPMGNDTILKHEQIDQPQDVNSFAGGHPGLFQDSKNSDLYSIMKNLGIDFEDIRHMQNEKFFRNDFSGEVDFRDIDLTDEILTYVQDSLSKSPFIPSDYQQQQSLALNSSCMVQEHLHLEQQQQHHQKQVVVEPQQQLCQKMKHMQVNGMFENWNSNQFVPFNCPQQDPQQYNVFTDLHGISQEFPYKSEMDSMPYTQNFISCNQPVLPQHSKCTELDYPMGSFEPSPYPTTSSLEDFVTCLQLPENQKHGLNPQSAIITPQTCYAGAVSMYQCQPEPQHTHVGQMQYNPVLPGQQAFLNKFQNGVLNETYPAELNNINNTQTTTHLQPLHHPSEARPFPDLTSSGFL
Active and inactive are the calls of the source. Rule for the calls: active = hit-call score of the fitted dose curve at least 0.9, where 1 is the maximum; inactive = score below 0.9.
// one of Yes for active, No for inactive, no free text

Example results:
ClC1=C(Cl)[C@]2(Cl)[C@H]3[C@H]([C@@H]4C=C[C@H]3C4)[C@@]1(Cl)C2(Cl)Cl
No
O=C(Nc1ccccc1)c1ccccc1I
No
O=C1CCCO1
No

Answer briefly: the call reported for `Cc1ccc([N+](=O)[O-])cc1` in this assay. No

Answer briefly: the call reported for `O=[N+]([O-])C(Br)(CO)CO` in this assay. No

Answer briefly: the call reported for `OCCCBr` in this assay. No

Answer briefly: the call reported for `OCCOCCO` in this assay. No

Answer briefly: the call reported for `C1=Cc2cccc3cccc1c23` in this assay. No

Answer briefly: the call reported for `OCCCl` in this assay. No

Answer briefly: the call reported for `CCCCCOC(=O)c1ccccc1C(=O)OCCCCC` in this assay. No

Answer briefly: the call reported for `Nc1ccc(N=Nc2ccccc2)cc1` in this assay. Yes

====

target: PGR (gene 5241); assay: TOX21_PR_LUC_Followup_Antagonist: Tox21 HEK293 Progesterone Receptor (PR) Antagonism Luciferase Follow-Up Assay (AID 2283938);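 note: curve fitted upward as signal gain over DMSO baseline despite antagonist label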
Records with an inconclusive call do not appear. The source made the active and inactive calls. The calls were made as follows: active = hit-call score of the fitted dose curve at least 0.9, where 1 is the maximum; inconclusive = response in the unintended direction; inactive = score below 0.9.
// one of label 1 for active, label 0 for inactive, no free text

Example results:
Clc1ccc(C(c2ccc(Cl)cc2)C(Cl)Cl)cc1
label 1
Clc1ccc(C(c2ccc(Cl)cc2)C(Cl)(Cl)Cl)cc1
label 1
O=[N+]([O-])c1ccc(Oc2ccc(Cl)cc2Cl)cc1
label 0

Field: next compound
Answer briefly: the call reported for `CCCCOC(=O)c1ccccc1C(=O)OCc1ccccc1` in this assay. label 0

====

experiment: ATG_GLI_CIS: Attagene CIS-FACTORIAL HepG2 Assay for human Zinc Finger Protein GLI1 (AID 2282945); conditions: HepG2, Attagene cis-factorial reporter mRNA, GLI element; actives raise or lower the signal
Activity calls are given as the source filed them. Rule for the calls: active = hit-call score of the fitted dose curve at least 0.9, where 1 is the maximum; inactive = score below 0.9.
// one of active, inactive, no free text

COP(=S)(OC)SCN1C(=O)c2ccccc2C1=O
inactive
Cc1cccc(N)c1N
inactive
Nc1ccc(Oc2ccc(N)cc2)cc1
inactive
Cc1ccc([N+](=O)[O-])cc1
inactive
C1=Cc2cccc3cccc1c23
inactive

Answer briefly: the call reported for `Nc1ccc(Cl)cc1N` in this assay. inactive

Answer briefly: the call reported for `Nc1ccc(Cc2ccc(N)cc2)cc1` in this assay. inactive

Answer briefly: the call reported for `O=C(N[C@H](c1ccccc1)[C@@H]1CN2CCC1CC2)c1c(Cl)ccc(C(F)(F)F)c1Cl` in this assay. inactive

Answer briefly: the call reported for C[N+](C)(C)CC1CO1 (stereo not given) in this assay. inactive

Answer briefly: the call reported for `[Cl-].[Cl-].[Hg+2]` in this assay. inactive

====

read-out: Cytochrome P450 4A22 (Homo sapiens) (UniProt Q5TCH4); assay: LTEA_HepaRG_CYP4A22: Life Technologies and Expression Analysis (LTEA) Assay for Cytochrome P450 4A22 (CYP4A22) using HepaRG (AID 2283495); conditions: mRNA level, 48 h; actives raise or lower the signal
Active and inactive are the calls of the source. How the source made its calls: active means hit-call score of the fitted dose curve at least 0.9, where 1 is the maximum; inactive means score below 0.9.
// one of active, inactive, no free text

Answer briefly: the call reported for `Clc1ccccc1Cl` in this assay. inactive

Answer briefly: the call reported for `Clc1ccc(C(c2ccc(Cl)cc2)C(Cl)Cl)cc1` in this assay. active

====

assay: CEETOX_H295R_OHPROG: CeeTox H295R High-throughput Steroidogenesis Assay for OH-Progesterone (OHPROG) (AID 2283435); details: actives raise or lower the signal
Calls of active or inactive are those of the source. Rule for the calls: active = hit-call score of the fitted dose curve at least 0.9, where 1 is the maximum; inactive = score below 0.9.
// one of yes (1) (active), no (0) (inactive), no free text

Example results:
CC(C)(C)C(O)(CCc1ccc(Cl)cc1)Cn1cncn1 (stereo not drawn)
yes (1)
c1ccc(N=Nc2ccccc2)cc1
no (0)
c1ccc2c(c1)-c1cccc3cccc-2c13
yes (1)
CNC(=O)Oc1cccc2c1OC(C)(C)C2
no (0)
Cc1cc(N=Nc2ccccc2C)ccc1N
yes (1)
Nc1ccc(Oc2ccc(N)cc2)cc1
no (0)
Cc1cccc(N)c1N
yes (1)
O=[N+]([O-])c1ccc(Oc2ccc(Cl)cc2Cl)cc1
no (0)

Answer briefly: the call reported for `O=P(OCCCl)(OCCCl)OCCCl` in this assay. no (0)

Answer briefly: the call reported for `CC(C)N(Cc1ccccc1)C(=O)C(C)(C)C` in this assay. no (0)

Answer briefly: the call reported for `CCOC(=O)[C@]1(c2ccccc2)Oc2ccccc2[C@@H]1N` in this assay. yes (1)

Answer briefly: the call reported for `COP(=S)(OC)SCN1C(=O)c2ccccc2C1=O` in this assay. no (0)

Answer briefly: the call reported for CCOc1cccc(C2(N3CCN(c4ccccc4)CC3)CCC(C)CC2)c1 (stereo not drawn) in this assay. yes (1)

====

read-out: Tumor necrosis factor receptor superfamily member 6 (Homo sapiens); experiment: LTEA_HepaRG_FAS: Life Technologies and Expression Analysis (LTEA) Assay for Fas cell surface death receptor (FAS) using HepaRG (AID 2283447); settings: mRNA level, 48 h; actives raise or lower the signal
The source made the active and inactive calls. How the source made its calls: active means hit-call score of the fitted dose curve at least 0.9, where 1 is the maximum; inactive means score below 0.9.
measurement-type: outcome

Use the examples below as a reference point.
COC(=O)c1ccccc1N
inactive
CC(C)(O)c1cnn2c(-c3ccc(F)c(-c4c(F)cccc4C#N)c3)cnc2n1
inactive
CC(C)(C)C(O)(CCc1ccc(Cl)cc1)Cn1cncn1 (centres undefined)
inactive
O=[N+]([O-])c1ccc(Oc2ccc(Cl)cc2Cl)cc1
inactive

State the recorded outcome for every item in the following list.
1. Cc1cccc(N)c1N
2. N#CC(Br)Br
3. OCCCBr
4. Oc1ccc2ccc3cccc4ccc1c2c34
5. CC(C)(C)OOC(=O)c1ccccc1

inactive
inactive
inactive
inactive
inactive

State the recorded outcome for every item in the following list.
1. Cc1ccc([N+](=O)[O-])cc1
2. CCNS(=O)(=O)C(F)(F)C(F)(F)C(F)(F)C(F)(F)C(F)(F)C(F)(F)C(F)(F)C(F)(F)F
3. ClCCOCCCl
4. ClC1=C(Cl)[C@]2(Cl)[C@H]3[C@H]([C@@H]4C=C[C@H]3C4)[C@@]1(Cl)C2(Cl)Cl
5. Cc1ccc(N)c(N)c1
6. CN(C)[C@@H]1C(=O)C(C(N)=O)=C(O)[C@@]2(O)C(=O)C3=C(O)c4c(O)cccc4[C@@](C)(O)[C@H]3C[C@@H]12
7. C1=Cc2cccc3cccc1c23
8. CCCCCCCCn1sccc1=O

["inactive", "inactive", "inactive", "inactive", "inactive", "inactive", "inactive", "inactive"]

====

target: human Muscarinic, M4 Receptor, CHRM4 (gene 1132) (UniProt P08173); experiment: NVS_GPCR_hM4: NovaScreen (NVS) G Protein-Coupled Receptor Assay for human Muscarinic, M4 Receptor (AID 2283274)
Sequence (P08173 whole entry, looked up): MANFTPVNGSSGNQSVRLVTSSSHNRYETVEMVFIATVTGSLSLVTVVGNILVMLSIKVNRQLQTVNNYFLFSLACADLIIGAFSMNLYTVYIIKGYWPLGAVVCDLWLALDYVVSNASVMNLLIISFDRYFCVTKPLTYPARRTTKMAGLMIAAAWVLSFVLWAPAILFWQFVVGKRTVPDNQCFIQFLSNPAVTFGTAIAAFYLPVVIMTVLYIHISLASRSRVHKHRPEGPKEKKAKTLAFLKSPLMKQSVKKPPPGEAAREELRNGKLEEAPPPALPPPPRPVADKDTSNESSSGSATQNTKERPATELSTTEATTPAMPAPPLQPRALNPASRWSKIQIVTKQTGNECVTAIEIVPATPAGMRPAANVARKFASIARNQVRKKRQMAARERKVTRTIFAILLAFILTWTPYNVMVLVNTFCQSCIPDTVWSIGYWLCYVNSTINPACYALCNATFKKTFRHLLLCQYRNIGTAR
Results filed as inconclusive are left out. The source made the active and inactive calls. Rule for the calls: active = hit-call score of the fitted dose curve at least 0.9, where 1 is the maximum; inconclusive = response in the unintended direction; inactive = score below 0.9.
// one of active, inactive, no free text

Example results:
O=C(N[C@H](c1ccccc1)[C@@H]1CN2CCC1CC2)c1c(Cl)ccc(C(F)(F)F)c1Cl
inactive
[Cl-].[Cl-].[Hg+2]
active
CCOC(=O)[C@]1(c2ccccc2)Oc2ccccc2[C@@H]1N
active

Answer briefly: the call reported for `CCC[CH2][Sn]([Cl])([CH2]CCC)[CH2]CCC` in this assay. active

Answer briefly: the call reported for `O=C(Oc1ccc(Br)cc1)N1CCN2CCC1CC2` in this assay. active

====

biological target: Estrogen receptor (Homo sapiens); assay: OT_ER_ERaERa_1440: Odyssey Thera (OT) 24-hour HEK293T Protein-Complementation Assay for Estrogen Receptor-alpha/-alpha Homodimer (AID 2283349);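 note: hits raise fluorescence above DMSO for agonists and antagonists alike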
Activity calls are given as the source filed them. The calls were made as follows: active = hit-call score of the fitted dose curve at least 0.9, where 1 is the maximum; inconclusive = response in the unintended direction; inactive = score below 0.9.
// one of t for active, f for inactive, no free text

OCCCBr
f
CC(C)COC(=O)c1ccccc1C(=O)OCC(C)C
t
Brc1ccc(Oc2ccccc2)cc1
f
CCCCCCCCn1sccc1=O
f
C[N+](C)(C)CC1CO1 (stereo not drawn)
f
[O-][Cl+]O
f
CCCCCOC(=O)c1ccccc1C(=O)OCCCCC
t
ClC1=C(Cl)[C@]2(Cl)[C@H]3[C@H]([C@@H]4C=C[C@H]3C4)[C@@]1(Cl)C2(Cl)Cl
f
CCC[CH2][Sn]([Cl])([CH2]CCC)[CH2]CCC
f
COc1cc(C=O)cc2c1[C@H](COC(N)=O)[C@]1(OC(C)=O)ON2C[C@H]2[C@@H]1N2C(C)=O
f

Answer briefly: the call reported for `O=C(Nc1ccccc1)c1ccccc1I` in this assay. f

Answer briefly: the call reported for `Cc1ccc([N+](=O)[O-])cc1` in this assay. f

Answer briefly: the call reported for CCOc1cccc(C2(N3CCN(c4ccccc4)CC3)CCC(C)CC2)c1 (stereo not drawn) in this assay. f
